This collection of values is drawn from PubChem BioAssay AID1963974.

# Test system: 648629-189-R-J1-PDC spheroids with HUVEC/MSC, viability;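 note: spheroids exposed to agents for seven days before reading; percent of vehicle control luminescence where 100% = DMSO treated spheroids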
# METHOD_NOTES: Anticancer human tumor 648629-189-R-J1-PDC patient-derived bladder carcinoma cell line growth inhibition [PI3K]
# ASSAY_SETUP: second compound 0.1 µM; first compound 0.00316 µM; active compounds read low
Give measured viability, T/C for each item. Keep answers brief.
Lab book: enter the figure in %, no units written.

Return reported viability, T/C; argument: Cn1ncnc1[C@H]1c2n[nH]c(=O)c3cc(F)cc(c23)N[C@@H]1c1ccc(F)cc1 + CC(Nc1ccc2c(c1)OCCn1cc(N3C(=O)OCC3C(F)F)nc1-2)C(N)=O
105

Recorded viability, T/C for CC(C)n1nc(-c2ccc3oc(N)nc3c2)c2c(N)ncnc21 + COc1c(OCCCN2CCOCC2)ccc2c3n(c(=NC(=O)c4cnc(N)nc4)nc12)CCN3 , please?
61.1

Field request: viability, T/C | item: CC(=O)c1c(C)c2cnc(Nc3ccc(N4CCNCC4)cn3)nc2n(C2CCCC2)c1=O + Cc1nc(NC(=O)N2CCCC2C(N)=O)sc1-c1ccnc(C(C)(C)C(F)(F)F)c1
93.7

Sample CCN1CCN(Cc2ccc(Nc3ncc(F)c(-c4cc(F)c5nc(C)n(C(C)C)c5c4)n3)nc2)CC1 + CC(Nc1ccc2c(c1)OCCn1cc(N3C(=O)OCC3C(F)F)nc1-2)C(N)=O — what was its viability, T/C?
96.4

Which value of viability, T/C has been reported for CC(=O)c1c(C)c2cnc(Nc3ccc(N4CCNCC4)cn3)nc2n(C2CCCC2)c1=O + CC(Nc1ccc2c(c1)OCCn1cc(N3C(=O)OCC3C(F)F)nc1-2)C(N)=O in the records?
82.8

viability, T/C lookup needed for CC(C)n1nc(-c2ccc3oc(N)nc3c2)c2c(N)ncnc21 + CC(Nc1ccc2c(c1)OCCn1cc(N3C(=O)OCC3C(F)F)nc1-2)C(N)=O , thanks.
80.3

Report viability, T/C for Cn1ncnc1[C@H]1c2n[nH]c(=O)c3cc(F)cc(c23)N[C@@H]1c1ccc(F)cc1 + COc1c(OCCCN2CCOCC2)ccc2c3n(c(=NC(=O)c4cnc(N)nc4)nc12)CCN3 please.
57.5

Name the reported viability, T/C value associated with the compound CCN1CCN(Cc2ccc(Nc3ncc(F)c(-c4cc(F)c5nc(C)n(C(C)C)c5c4)n3)nc2)CC1 + CC(Nc1ncnc2nc[nH]c12)c1cc2cccc(Cl)c2c(=O)n1-c1ccccc1
107

Which viability, T/C value belongs to CC(C)n1nc(-c2ccc3oc(N)nc3c2)c2c(N)ncnc21 + Cc1nc(NC(=O)N2CCCC2C(N)=O)sc1-c1ccnc(C(C)(C)C(F)(F)F)c1 ?
91.7

Please report the recorded viability, T/C for CCN1CCN(Cc2ccc(Nc3ncc(F)c(-c4cc(F)c5nc(C)n(C(C)C)c5c4)n3)nc2)CC1 + Cc1nc(NC(=O)N2CCCC2C(N)=O)sc1-c1ccnc(C(C)(C)C(F)(F)F)c1 .
101

Look at this compound and give its reported viability, T/C. CC(=O)c1c(C)c2cnc(Nc3ccc(N4CCNCC4)cn3)nc2n(C2CCCC2)c1=O + CC(Nc1ncnc2nc[nH]c12)c1cc2cccc(Cl)c2c(=O)n1-c1ccccc1
98.5

Which viability, T/C value belongs to Cn1ncnc1[C@H]1c2n[nH]c(=O)c3cc(F)cc(c23)N[C@@H]1c1ccc(F)cc1 + Cc1nc(NC(=O)N2CCCC2C(N)=O)sc1-c1ccnc(C(C)(C)C(F)(F)F)c1 ?
93.5

// viability, T/C lookup, key: CC(C)n1nc(-c2ccc3oc(N)nc3c2)c2c(N)ncnc21 + CC(Nc1ncnc2nc[nH]c12)c1cc2cccc(Cl)c2c(=O)n1-c1ccccc1
101

Which viability, T/C value is on record for Cn1ncnc1[C@H]1c2n[nH]c(=O)c3cc(F)cc(c23)N[C@@H]1c1ccc(F)cc1 + CC(Nc1ncnc2nc[nH]c12)c1cc2cccc(Cl)c2c(=O)n1-c1ccccc1 ?
98.2

Entry CCN1CCN(Cc2ccc(Nc3ncc(F)c(-c4cc(F)c5nc(C)n(C(C)C)c5c4)n3)nc2)CC1 + COc1c(OCCCN2CCOCC2)ccc2c3n(c(=NC(=O)c4cnc(N)nc4)nc12)CCN3 : reported viability, T/C = ?
58.6

Field request: viability, T/C | item: CC(=O)c1c(C)c2cnc(Nc3ccc(N4CCNCC4)cn3)nc2n(C2CCCC2)c1=O + COc1c(OCCCN2CCOCC2)ccc2c3n(c(=NC(=O)c4cnc(N)nc4)nc12)CCN3
64.8
